study system: T1, Human Galectin-3 protein (Acro Biosystems, GA3-H5129) (human, UniProt P17931 2-250)
T1 construct: Bought protein; also called hGal3; Gal3; not shown: linker-spaced 6-histidine tag
T1 sequence (P17931 2-250): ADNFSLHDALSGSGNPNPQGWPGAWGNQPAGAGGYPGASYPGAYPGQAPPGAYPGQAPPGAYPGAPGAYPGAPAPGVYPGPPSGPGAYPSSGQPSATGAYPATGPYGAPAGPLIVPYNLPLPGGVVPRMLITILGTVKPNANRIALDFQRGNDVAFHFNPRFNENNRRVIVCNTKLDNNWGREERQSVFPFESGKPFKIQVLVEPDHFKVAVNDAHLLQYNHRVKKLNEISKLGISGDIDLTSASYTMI
assay details: ELISA titration, blocking of GAL3-TIM3; competitor TIM3
measured property: IC50 (nM)
Please state the figure in nM; there is no need to write the unit.

binder="IMT006-8 (antibody, V domains shown, humanized antibody) VH: QVQLVQSGAEVKKPGASVKVSCKASGYSFTNYYIHWVRQAPGQRLEWMGWIYPGSGNTNYNEKFQGRVTLTADTSASTTYMELSSLRSEDTAVYYCSTAPGGFDVWGQGTTVTVSS VL: DIVMTQSPLSLPVTPGEPASISCRSSKSLLHSDGITYLYWYLQKPGQSPQLLIYRMSNLASGVPDRFSGSGSGTDFTLKISRVEAEDVGVYYCAQMLEFPLTFGQGTKLEIKR" measured_property=IC50 measurement_units=nM recorded_measurement=2.8

Q: Looking for the measured IC50 of IMT006-1 (antibody, V domains shown, humanized antibody derived from 4A11.2B5; also called HuIMT006-1) VH: QVQLVQSGAEVKKPGASVKVSCKASGYSFTNYYMHWVRQAPGQGLEWMGWIYPGSGNTNYNEKFQGRVTMTADTSISTAYMELSRLRSDDTAVYYCSTAPGGFDVWGQGTTVTVSS VL: DIVMTQTPLSLSVTPGQPASISCKSSKSLLHSDGITYLYWYLQKPGQSPQLLIYRMSNLASGVPDRFSGSGSGTDFTLKISRVEAEDVGVYYCAQMLEFPLTFGQGTKLEIKR , can you help?
Result: 26.5

Q: Looking for the measured IC50 of IMT006-5 (antibody, V domains shown, humanized antibody derived from 4A11.2B5) VH: QVQLVQSGAEVKKPGASVKVSCKASGYSFTNYYMHWVRQAPGQRLEWMGWIYPGSGNTNYNEKFQGRVTITADTSASTAYMELSSLRSEDTAVYYCSTAPGGFDVWGQGTTVTVSS VL: DIVMTQTPLSLSVTPGQPASISCKSSKSLLHSDGITYLYWYLQKPGQSPQLLIYRMSNLASGVPDRFSGSGSGTDFTLKISRVEAEDVGVYYCAQMLEFPLTFGQGTKLEIKR , can you help?
Result: 4.1

Q: Looking for the measured IC50 of IMT001-4 (antibody, IgG4, V domains shown, also called HuIMT001-4) VH: QVQLVQSGSELKKPGASVKVSCKASGYTFTNYGMNWVRQAPGQGLKWMGWINTNTGEPTYVEEFTGRFVFSLETSVSTAYLQISSLKAEDTAVYFCAPYDNFFAYWGQGTTVTVSS VL: DIVLTQSPLSLPVTPGEPASISCRSSKSLLYKDGKTYLNWFLQKPGQSPQLLIYLMSTHASGVPDRFSGSGSGTDFTLKISRVEAEDVGVYYCQQLVDYPLTFGGGTKLEIKR , can you help?
Result: 5.6
